Every entry's value here was drawn from patent US20190381014A1.

- PROTOCOL TEXT: Rat PK study (single IV and PO dose, plasma LC-MS/MS)
- Type: in vivo, S-D rats
- ASSAY CONDITIONS: Sprague-Dawley (S-D), rat, plasma; S-D rats, PO 10 mg/kg
- Description: […] S-D rats of Group A were given a single intravenous injection (IV) of 2 mg·kg^−1, respectively; S-D rats of Group B were given a single gavage administration (PO) of 10 mg·kg^−1, respectively. […] Concentrations of compounds in the plasma samples were analyzed using a LC-MS/MS method. The pharmacokinetic parameters were calculated using non-compartment model in Pharsight Phoenix 7.0 software. […]
Consider the following compounds; for each one, report its Tmax.
Report the value in h with no unit label.

INPUT: Looking for the measured Tmax of COCC1(COc2cc3c(cc2OC)-c2cc(=O)c(C(=O)O)cn2[C@H](C(C)C)C3)COC1 , can you help?
OUTPUT: 1

INPUT: Looking for the measured Tmax of COc1cc2c(cc1OCCCC(C)=O)C[C@@H](C(C)C)n1cc(C(=O)O)c(=O)cc1-2 , can you help?
OUTPUT: 0.33

INPUT: Looking for the measured Tmax of COc1cc2c(cc1C#CC1CC1)C[C@@H](C(C)C)n1cc(C(=O)O)c(=O)cc1-2 , can you help?
OUTPUT: 1.8

INPUT: Looking for the measured Tmax of COc1cc2c(cc1O[C@@H]1CCOC1)C[C@@H](C(C)C)n1cc(C(=O)O)c(=O)cc1-2 , can you help?
OUTPUT: 1.2

###

Consider the following molecules; for each one, report its Tmax.
- PROTOCOL TEXT: Rat PK study (single IV and PO dose, plasma LC-MS/MS)
- Type: in vivo, S-D rats
- ASSAY CONDITIONS: Sprague-Dawley (S-D), rat, plasma; S-D rats, PO 10 mg/kg
Report the value in min with no unit label.

INPUT: Looking for the measured Tmax of COc1cc2c(cc1OCC1CC(OC)C1)C[C@@H](C(C)C)n1cc(C(=O)O)c(=O)cc1-2 (some centres unmarked) , can you help?
OUTPUT: 55.2

INPUT: Looking for the measured Tmax of COCC1(COc2cc3c(cc2OC)-c2cc(=O)c(C(=O)O)cn2[C@H](C(C)C)C3)CC1 , can you help?
OUTPUT: 34.8

INPUT: Looking for the measured Tmax of COCCCOc1cc2c(cc1OC)-c1cc(=O)c(C(=O)O)cn1[C@H](C(C)C)C2 [A, reference compound] , can you help?
OUTPUT: 132

INPUT: Looking for the measured Tmax of COc1cc2c(cc1O[C@H]1C[C@H](OC)C1)C[C@@H](C(C)C)n1cc(C(=O)O)c(=O)cc1-2 , can you help?
OUTPUT: 30

INPUT: Looking for the measured Tmax of COc1cc2c(cc1OC1CCCC1)C[C@@H](C(C)C)n1cc(C(=O)O)c(=O)cc1-2 , can you help?
OUTPUT: 60

###

- PROTOCOL TEXT: Rat PK study (single IV and PO dose, plasma LC-MS/MS)
- Assay type: in vivo, S-D rats
- ASSAY CONDITIONS: Sprague-Dawley (S-D), rat, plasma; S-D rats, PO 10 mg/kg
PROPERTY MEASURED: Cmax (µg/mL)
Report the value in µg/mL with no unit label.

INPUT: Looking for the measured Cmax of COCCCOc1cc2c(cc1OC)-c1cc(=O)c(C(=O)O)cn1[C@H](C(C)C)C2 [A, reference compound] , can you help?
OUTPUT: 0.475

INPUT: Looking for the measured Cmax of COc1cc2c(cc1O[C@@H]1CCOC1)C[C@@H](C(C)C)n1cc(C(=O)O)c(=O)cc1-2 , can you help?
OUTPUT: 0.437

INPUT: Looking for the measured Cmax of COCC1(COc2cc3c(cc2OC)-c2cc(=O)c(C(=O)O)cn2[C@H](C(C)C)C3)CC1 , can you help?
OUTPUT: 1.49

INPUT: Looking for the measured Cmax of COc1cc2c(cc1O[C@H]1C[C@H](OC)C1)C[C@@H](C(C)C)n1cc(C(=O)O)c(=O)cc1-2 , can you help?
OUTPUT: 1.34

INPUT: Looking for the measured Cmax of COc1cc2c(cc1OC1CCCC1)C[C@@H](C(C)C)n1cc(C(=O)O)c(=O)cc1-2 , can you help?
OUTPUT: 0.265

INPUT: Looking for the measured Cmax of COCC1(COc2cc3c(cc2OC)-c2cc(=O)c(C(=O)O)cn2[C@H](C(C)C)C3)COC1 , can you help?
OUTPUT: 0.103

INPUT: Looking for the measured Cmax of COc1cc2c(cc1OCC1CC(OC)C1)C[C@@H](C(C)C)n1cc(C(=O)O)c(=O)cc1-2 (stereo partly drawn) , can you help?
OUTPUT: 0.739

INPUT: Looking for the measured Cmax of COc1cc2c(cc1C#CC1CC1)C[C@@H](C(C)C)n1cc(C(=O)O)c(=O)cc1-2 , can you help?
OUTPUT: 0.119

INPUT: Looking for the measured Cmax of COc1cc2c(cc1OCCCC(C)=O)C[C@@H](C(C)C)n1cc(C(=O)O)c(=O)cc1-2 , can you help?
OUTPUT: 0.0799

###

- PROTOCOL TEXT: Rat PK study (single IV and PO dose, plasma LC-MS/MS)
- Format: in vivo, S-D rats
- ASSAY CONDITIONS: Sprague-Dawley (S-D), rat, plasma; S-D rats, IV 2 mg/kg
Consider the following compounds; for each one, report its half-life.

INPUT: Looking for the measured half-life of COc1cc2c(cc1OCC1CC(OC)C1)C[C@@H](C(C)C)n1cc(C(=O)O)c(=O)cc1-2 (stereo partly drawn) , can you help?
OUTPUT: 53.4 min

INPUT: Looking for the measured half-life of COCC1(COc2cc3c(cc2OC)-c2cc(=O)c(C(=O)O)cn2[C@H](C(C)C)C3)CC1 , can you help?
OUTPUT: 42.6 min

INPUT: Looking for the measured half-life of COc1cc2c(cc1C#CC1CC1)C[C@@H](C(C)C)n1cc(C(=O)O)c(=O)cc1-2 , can you help?
OUTPUT: 34.8 min

INPUT: Looking for the measured half-life of COc1cc2c(cc1OC1CCCC1)C[C@@H](C(C)C)n1cc(C(=O)O)c(=O)cc1-2 , can you help?
OUTPUT: 52.8 min

INPUT: Looking for the measured half-life of COc1cc2c(cc1O[C@H]1C[C@H](OC)C1)C[C@@H](C(C)C)n1cc(C(=O)O)c(=O)cc1-2 , can you help?
OUTPUT: 58.8 min

INPUT: Looking for the measured half-life of COCCCOc1cc2c(cc1OC)-c1cc(=O)c(C(=O)O)cn1[C@H](C(C)C)C2 [A, reference compound] , can you help?
OUTPUT: 56.4 min

INPUT: Looking for the measured half-life of COc1cc2c(cc1OCCCC(C)=O)C[C@@H](C(C)C)n1cc(C(=O)O)c(=O)cc1-2 , can you help?
OUTPUT: 17.4 min

INPUT: Looking for the measured half-life of COc1cc2c(cc1O[C@@H]1CCOC1)C[C@@H](C(C)C)n1cc(C(=O)O)c(=O)cc1-2 , can you help?
OUTPUT: 108 min

INPUT: Looking for the measured half-life of COCC1(COc2cc3c(cc2OC)-c2cc(=O)c(C(=O)O)cn2[C@H](C(C)C)C3)COC1 , can you help?
OUTPUT: 40.2 min

###

Consider the following compounds; for each one, report its AUC(0-t).
- PROTOCOL TEXT: Rat PK study (single IV and PO dose, plasma LC-MS/MS)
- Format: in vivo, S-D rats
- ASSAY CONDITIONS: Sprague-Dawley (S-D), rat, plasma; S-D rats, PO 10 mg/kg
Report the value in ng·h/mL with no unit label.

INPUT: Looking for the measured AUC(0-t) of COc1cc2c(cc1OCCCC(C)=O)C[C@@H](C(C)C)n1cc(C(=O)O)c(=O)cc1-2 , can you help?
OUTPUT: 105

INPUT: Looking for the measured AUC(0-t) of COCC1(COc2cc3c(cc2OC)-c2cc(=O)c(C(=O)O)cn2[C@H](C(C)C)C3)CC1 , can you help?
OUTPUT: 2310

INPUT: Looking for the measured AUC(0-t) of COc1cc2c(cc1O[C@H]1C[C@H](OC)C1)C[C@@H](C(C)C)n1cc(C(=O)O)c(=O)cc1-2 , can you help?
OUTPUT: 5500

INPUT: Looking for the measured AUC(0-t) of COc1cc2c(cc1C#CC1CC1)C[C@@H](C(C)C)n1cc(C(=O)O)c(=O)cc1-2 , can you help?
OUTPUT: 461

###

Consider the following molecules; for each one, report its half-life.
- PROTOCOL TEXT: Rat PK study (single IV and PO dose, plasma LC-MS/MS)
- Type: in vivo, S-D rats
- ASSAY CONDITIONS: Sprague-Dawley (S-D), rat, plasma; S-D rats, PO 10 mg/kg
Report the value in h with no unit label.

INPUT: Looking for the measured half-life of COc1cc2c(cc1O[C@@H]1CCOC1)C[C@@H](C(C)C)n1cc(C(=O)O)c(=O)cc1-2 , can you help?
OUTPUT: 1.6

INPUT: Looking for the measured half-life of COc1cc2c(cc1O[C@H]1C[C@H](OC)C1)C[C@@H](C(C)C)n1cc(C(=O)O)c(=O)cc1-2 , can you help?
OUTPUT: 1.7

INPUT: Looking for the measured half-life of COCC1(COc2cc3c(cc2OC)-c2cc(=O)c(C(=O)O)cn2[C@H](C(C)C)C3)CC1 , can you help?
OUTPUT: 1.9

INPUT: Looking for the measured half-life of COc1cc2c(cc1OC1CCCC1)C[C@@H](C(C)C)n1cc(C(=O)O)c(=O)cc1-2 , can you help?
OUTPUT: 1.3

INPUT: Looking for the measured half-life of COCC1(COc2cc3c(cc2OC)-c2cc(=O)c(C(=O)O)cn2[C@H](C(C)C)C3)COC1 , can you help?
OUTPUT: 1.4

INPUT: Looking for the measured half-life of COc1cc2c(cc1OCCCC(C)=O)C[C@@H](C(C)C)n1cc(C(=O)O)c(=O)cc1-2 , can you help?
OUTPUT: 1.8

INPUT: Looking for the measured half-life of COCCCOc1cc2c(cc1OC)-c1cc(=O)c(C(=O)O)cn1[C@H](C(C)C)C2 [A, reference compound] , can you help?
OUTPUT: 1.5

INPUT: Looking for the measured half-life of COc1cc2c(cc1OCC1CC(OC)C1)C[C@@H](C(C)C)n1cc(C(=O)O)c(=O)cc1-2 (stereo partly drawn) , can you help?
OUTPUT: 1.3

INPUT: Looking for the measured half-life of COc1cc2c(cc1C#CC1CC1)C[C@@H](C(C)C)n1cc(C(=O)O)c(=O)cc1-2 , can you help?
OUTPUT: 3.2
